Here, each record is paired with measured cell count data.
# Assay explanation: GPR55 agonists via beta-arrestin recruitment, primary screen, imaging, U2OS cells, beta-arrestin-GFP redistribution (AID 1961);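 further: U2OS osteosarcoma cells stably expressing GPR55 and beta-arrestin-GFP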
# Test parameters: measured here: cytotoxicity, cells analyzed, at 10 µM
In all, about 290,000 compounds went through this assay and about 140 (0.048%) were called active. This is one part of a sample in which actives are shown more often than they occur.
Value expressed in cells; do not type the unit.

Some entries whose results are on file:
| Compound | Units of measure | cell count |
| --- | --- | --- |
| O=C(Cn1nc(-c2ccco2)ccc1=O)Nc1cc(C(F)(F)F)ccc1Cl | cells | 369 |
| COc1ccc(OCc2n(CC(=O)OC3CC(C)CCC3C(C)C)c3ccccc3[n+]2C)cc1 (stereo unspecified) | cells | 350 |
| CCCN1C(=O)/C(=C/c2c(NCCCOCC)nc3c(C)cccn3c2=O)SC1=S | cells | 462 |
| CCCc1cc(=O)n2[nH]c(C)c(-c3ccc(OC)cc3)c2n1 | cells | 417 |
| CCOCCCNc1nc2c(C)cccn2c(=O)c1/C=C1\SC(=S)N(C(C)CC)C1=O (stereo unspecified) | cells | 390 |

Now consider a different compound.
*Q* Can you look up the measured cell count of CC(=O)N1CC=C2C(C#N)=C(N)C(C#N)(C#N)C(C)C2C1 (stereo unspecified) for me?
*A* 315

meta.source: PubChem BioAssay AID1961
